Attribution: PubChem BioAssay (NCI)

System: SF-295 CNS
assayProcedure: NCI-60 one-dose screen, 48 h
runConditions: 10 µM unless noted
About 83,000 compounds went through this panel and 20% of them were active in at least one assay; those are over-represented in the sample as a whole. The source made the active and inactive calls. Rule for the calls: active = growth percent below 10; inactive = the rest.
Outcomes: TRUE (active), FALSE (inactive)

molecule	assignedCategory
N=C(N)c1ccc(-c2ccc(-c3ccc(Cl)cc3Cl)s2)cc1F	TRUE
O=C1OCC2=C1C(c1cccc(F)c1)c1cc3c(cc1N2CCO)OCO3 (stereo unspecified)	TRUE
CCC(C)Nc1ccc(NC(C)CC)cc1 (stereo unspecified)	FALSE
C=CCn1c(SCC(=O)Nc2ccc(C(=O)/C=C/c3cc(OC)c(OC)c(OC)c3)cc2)nnc1-c1cc(-c2ccc(OC)cc2)nc2ccccc12	FALSE
COc1ccc(C(O)c2cc3c(N)c(C(=O)Nc4cccc(Cl)c4)sc3nc2C)cc1 (stereo unspecified)	TRUE
Cc1c2ccccc2nc2c1ccc1cccnc12	FALSE
C[C@@H]1O[C@@H](O[C@@H]2C[C@H](c3ccc4c(c3O)C(=O)C3=C(C4=O)[C@@]4(O)C(=O)C[C@](C)(O)C[C@@]4(O)C=C3)O[C@H](C)[C@H]2O)C[C@H](O)[C@@H]1O	FALSE
O=C(c1ccc(Cl)cc1Cl)N1c2ccccc2Sc2ccccc21	FALSE
CC1=CCC[C@@H]2C1(C)CC[C@H](C)[C@@]2(C)CC1=CC(=O)C(SC(C)(C)C)=CC1=O (stereo partly specified)	FALSE
N#Cc1c(-c2ccccc2)c(C#N)c2c(C#N)c(N)nn2c1N	FALSE
COc1ccc2nc(SCC(=O)Nc3ccccc3C)[nH]c2c1	FALSE
COC(=O)c1c2c(c(C)[n+]([O-])c1C)C(=O)C=CC2=O	FALSE
NC(=S)N/N=C/c1cn(-c2ccccc2)nc1-c1cc2ccccc2oc1=O	FALSE
O=C(/C=C/C12c3ccccc3C(c3ccccc31)C1C(=O)NC(=O)C12)c1ccc(F)cc1 (stereo unspecified)	FALSE
NC(=O)c1c(NC(=O)c2ccc(Cl)cc2)sc2c1CCC(=O)C2	FALSE
FC(F)(F)c1[nH]ncc1-c1nc2c(N3CCCCC3)cc3[nH]ncc3c2c2c1CCCC2	TRUE
C#CCOc1ccc2ncnc(Nc3cccc(NC(=O)CCl)c3)c2c1	FALSE
Cc1nn(-c2ccccc2)c(/N=C/N(C)C)c1/C=C/C(=O)c1ccc(Cl)cc1	FALSE
CC(C)(CO)N(CCO)CCO	FALSE
COc1ccc2nc(Cl)c(/C=C/C(=O)c3ccc(NC(=O)CSc4nnc(-c5ccc(Cl)c(Cl)c5)n4-c4ccccc4)cc3)cc2c1	FALSE
N#C/C(=C\c1ccc(-c2ccc(Cl)cc2)o1)c1ccc(Cl)cc1	FALSE
N=C(N)SCc1cccc2c(CSC(=N)N)cccc12	FALSE
CC[C@@H](c1ccc2cc(OC)ccc2c1)C(C)(C)C(=O)F	FALSE
O=C1c2cccnc2C(=O)c2c1c(C(=O)OCCCN1CCCCC1)c1ccccn21	TRUE
N#C/C(=C\c1ccc(Cl)cc1Cl)C(=O)Nc1ncc(Cc2ccc(Cl)c(Cl)c2)s1	FALSE
CCN(C(=O)N1CCN(c2cc3c(cc2F)c(=O)c(C(=O)O)cn3C2CC2)CC1)c1nc(-c2ccc(C)cc2)cs1	TRUE
O=C(CSc1nc2ccc([N+](=O)[O-])cc2[nH]1)Nc1cccc([N+](=O)[O-])c1	FALSE
CCNCc1ccc(O)c2ncccc12	FALSE
CN1C(=O)/C(=C/c2ccc(C(=O)Nc3ncc(Cc4ccc(F)cc4)s3)cc2)SC1=S	FALSE
CCCCc1oc2ccccc2c1C(=O)c1ccc(O)cc1	FALSE
N=C(N)c1ccc(-c2ccc(-c3ccc(F)cc3)s2)s1	TRUE
Cc1ccc(Nc2nc(-c3ccc(F)cc3)c(C#N)c(=O)n2C)cc1	FALSE
COc1ccc(Nc2ncc(C(N)=O)c(NCCCNC(=O)C3CCC3)n2)cc1	FALSE
O=C(OC[C@@H]1CO1)c1cccc2c(=O)c3ccccc3[nH]c12	TRUE
COc1ccc(C2C(C#N)=C(N)Oc3c2sc2c(Br)cccc32)cc1 (stereo unspecified)	FALSE
CCOC(=O)C(=Cc1cccc(C#N)c1)C(=O)OCC	FALSE
CC(=O)N(Cc1ccccc1)c1nc2ccc(O)c(CN(C)C)c2s1	FALSE
Cn1cc(-c2nonc2-c2c[nH]c3ccc(F)cc23)c2cc(Br)ccc21	FALSE
N#Cc1nc2c(S(=O)(=O)c3ccccc3)c(N)n(Cc3cccnc3)c2nc1C#N	FALSE
O=C(CSc1nc2ccc([N+](=O)[O-])cc2[nH]1)Nc1ccc(Br)cc1	FALSE
COc1cc(/C=N/Nc2ccccc2F)cc(OC)c1OC	FALSE
